// reported CC50 for each item listed
Test: Toxicity in mouse RAW264.7 cells by MTT assay
Format: cell-based
Conditions: read-out: TD50 (the source's name)
// note: answer is a bare numeric in µg/mL

>>> recorded_result("C/C=C/C=C\\CC/C=C/C=C/C(=O)NCC(C)C")
50

Task: Consider the molecule CCCCCCC/C=C/C=C/C(=O)NCC(C)C and give its measured CC50.
Result: 12.5

Task: Which CC50 value is on record for C/C=C\C=C/CC/C=C/C=C/C(=O)NCC(C)C ?
Result: 50
